Below: a set of entries, each annotated with reported recombinant barcode read abundance (log10).
assay remarks: recombinant barcode read abundance after kanamycin selection (control-corrected) (log10(CPM+1)); higher = more efficient recombination; sequences stand for … in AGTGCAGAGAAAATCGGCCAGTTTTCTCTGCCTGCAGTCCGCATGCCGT…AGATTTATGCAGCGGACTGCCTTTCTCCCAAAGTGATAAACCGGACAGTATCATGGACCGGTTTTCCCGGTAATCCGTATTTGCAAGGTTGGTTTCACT; site = the 11-nt target;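 also: IS621 recombinase and bridge RNA in Escherichia coli cells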
Please reply with the number alone, leaving off any unit.

Below are worked cases with known answers.
- sequence data: "AAGCCCTCTTGGGTTCTAACCTGTTGCTT (site AAGGCCTCTAA)"
  value reported: 0
- sequence data: "CTGAGTACTTGGGTTCTAACCTGTTGCCT (site CTGAGTACTAG)"
  value reported: 1.08
- sequence data: "GTAAAGTCTTGGGTTCTAACCTGTTGCCA (site GTAAAGTCTTG)"
  value reported: 0.276
- sequence data: "GGGCACACTTGGGTTCTAACCTGTTGCCA (site GGGAACACTTG)"
  value reported: 0.193

Attention now turns to another entry.
Prompt: Which value of recombinant barcode read abundance (log10) has been reported for AGAGTGACTTGGGTTCTAACCTGTTGCCT (site AGAGAGACTAG) in the records?
Response: 1

* * *

assay remarks: recombinant barcode read abundance after kanamycin selection (control-corrected) (log10(CPM+1)); higher = more efficient recombination; sequences stand for … in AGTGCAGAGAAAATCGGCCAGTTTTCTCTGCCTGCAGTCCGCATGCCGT…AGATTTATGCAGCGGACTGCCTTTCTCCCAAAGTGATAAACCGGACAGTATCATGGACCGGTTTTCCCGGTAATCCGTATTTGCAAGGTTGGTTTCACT; site = the 11-nt target
Assign class by recombinant barcode read abundance (log10): not lower than 0.8 means 1.0; lower than 0.8 means 0.0.

Reference set, count: 6
- sequence data: "GTAAACTCTTGGGTTCTAACCTGTTGCCT (site GTTAACTCTAG)"
  class: 0.0
- sequence data: "CTGGGGTCTTGGGTTCTAACCTGTTGCCT (site CTGGTGTCTAG)"
  class: 0.0
- sequence data: "GATGCTACTTGGGTTCTAACCTGTTGCGG (site GATGCTACTCC)"
  class: 1.0
- sequence data: "CGGAACACTTGGGTTCTAACCTGTTGCGG (site CGGTACACTCC)"
  class: 1.0
- sequence data: "GTCCATTCTTGGGTTCTAACCTGTTGCAT (site GGACATTCTAT)"
  class: 0.0
- sequence data: "ACACCCTCTTGGGTTCTAACCTGTTGCTT (site ACACCCTCTAA)"
  class: 1.0

Please look at the following sequence next.
Prompt: Tell me whether recombinant barcode read abundance (log10) is at least 0.8 here: ATAGCAACTTGGGTTCTAACCTGTTGCCT (site ATAGCGACTAG)
Response: 0.0

* * *

assay remarks: recombinant barcode read abundance after kanamycin selection (control-corrected) (log10(CPM+1)); higher = more efficient recombination; sequences stand for … in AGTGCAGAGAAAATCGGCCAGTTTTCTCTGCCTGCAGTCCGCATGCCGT…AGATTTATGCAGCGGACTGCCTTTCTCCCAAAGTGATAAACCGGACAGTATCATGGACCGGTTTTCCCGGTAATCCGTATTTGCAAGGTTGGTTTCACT; site = the 11-nt target
Below: a set of entries, each annotated with reported recombinant barcode read abundance (log10).
Please reply with the number alone, leaving off any unit.

Below are worked cases with known answers.
- sequence data: "AGAAATTCTTGGGTTCTAACCTGTTGCCT (site AGTAATTCTAG)"
  value reported: 0.0316
- sequence data: "TAGACCACTTGGGTTCTAACCTGTTGCAC (site CTATATGCTAA)"
  value reported: 0.0777
- sequence data: "AACATCACTTGGGTTCTAACCTGTTGCCG (site AGCATCACTAG)"
  value reported: 0

Prompt: Which value of recombinant barcode read abundance (log10) has been reported for TCCTATCCTTGGGTTCTAACCTGTTGCGA (site GTGGGAACTAA) in the records?
Response: 0.0465

Prompt: Next record, please: TCTACATCTTGGGTTCTAACCTGTTGCCT (site TCTACGTCTAG)
Response: 0.0302

Prompt: Next record, please: CTACGCACTTGGGTTCTAACCTGTTGCTG (site CTACGCACTCA)
Response: 1.68
